Target: 17β-HSD10 (Homo sapiens)
Sequence (Q99714 1-261): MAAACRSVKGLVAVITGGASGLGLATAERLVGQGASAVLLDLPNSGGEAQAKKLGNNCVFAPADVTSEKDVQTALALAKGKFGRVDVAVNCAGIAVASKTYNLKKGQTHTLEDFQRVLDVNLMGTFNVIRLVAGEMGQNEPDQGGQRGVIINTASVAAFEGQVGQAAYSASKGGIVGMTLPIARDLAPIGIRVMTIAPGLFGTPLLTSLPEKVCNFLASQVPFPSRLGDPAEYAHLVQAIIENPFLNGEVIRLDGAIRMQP
Assay: recombinant 17β-HSD10 enzyme activity assay (primary NADH screen and dose response)
Type: biochemical
Design: made in house
Details: relative remaining activity, 25 μM compound, six independent measurements ± SEM; read-out: 17β-HSD10 activity in the presence of compound at 25 μM (Primary Screen)

[
  {
    "compound": "COc1ccc2nc(NC(=O)NCc3ccc(O)c(O)c3)sc2c1",
    "remaining activity at 25 µM": "63.5%"
  },
  {
    "compound": "O=C(Nc1ccc(O)c(Cl)c1)Nc1nc(-c2ccc(Cl)cc2)cs1",
    "remaining activity at 25 µM": "102%"
  },
  {
    "compound": "COc1ccc2nc(NC(=O)Nc3ccc(O)c(C(C)(C)C)c3)sc2c1",
    "remaining activity at 25 µM": "41%"
  },
  {
    "compound": "Oc1ccc(Nc2nc3ccc(Cl)cc3s2)cc1Cl",
    "remaining activity at 25 µM": "120%"
  },
  {
    "compound": "COc1ccc2nc(NC(c3ccc(O)c(Cl)c3)P(=O)(OC)OC)sc2c1 (stereo not drawn)",
    "remaining activity at 25 µM": "97.8%"
  },
  {
    "compound": "CC(C)(C)c1ccc2nc(NC(=O)Nc3ccc(O)c(Cl)c3)sc2c1",
    "remaining activity at 25 µM": "34%"
  },
  {
    "compound": "COc1ccc2nc(NC(=O)Nc3ccc(O)c(Br)c3)sc2c1",
    "remaining activity at 25 µM": "14.3%"
  },
  {
    "compound": "O=C(Nc1ccc(O)c(Cl)c1)Nc1ccc(O)c(Cl)c1 [Compound 78, 1,3-Bis(3-chloro-4-hydroxyphenyl)urea]",
    "remaining activity at 25 µM": "35.2%"
  },
  {
    "compound": "COc1ccc2nc(NC(=O)Nc3ccc(O)c(C)c3)sc2c1",
    "remaining activity at 25 µM": "52.2%"
  }
]

###

Biological target: 17β-HSD10 (Homo sapiens, UniProt Q99714)
Sequence (Q99714 1-261): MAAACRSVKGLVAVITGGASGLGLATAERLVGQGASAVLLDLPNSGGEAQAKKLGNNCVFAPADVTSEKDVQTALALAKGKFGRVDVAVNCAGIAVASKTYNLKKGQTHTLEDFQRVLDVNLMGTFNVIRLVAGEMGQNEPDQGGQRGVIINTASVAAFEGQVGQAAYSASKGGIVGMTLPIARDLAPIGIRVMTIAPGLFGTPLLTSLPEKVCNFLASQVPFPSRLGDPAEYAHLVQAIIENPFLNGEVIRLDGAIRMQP
Test: recombinant 17β-HSD10 enzyme activity assay (primary NADH screen and dose response)
Type: biochemical
Set-up: made in house
Conditions: recombinant enzyme, dose response, 95% CI
pIC50: −log10 of the molar value.
observable: pIC50

[
  {
    "compound": "COc1ccc2nc(NC(=O)Nc3ccc(O)c(I)c3)sc2c1 [Compound 6]",
    "tgt": "17β-HSD10 (Homo sapiens, UniProt Q99714)",
    "observable": "pIC50",
    "measured-result": 5.73
  },
  {
    "compound": "CC(C)c1ccc2nc(NC(=O)Nc3ccc(O)c(Cl)c3)sc2c1 [Compound 61]",
    "tgt": "17β-HSD10 (Homo sapiens, UniProt Q99714)",
    "observable": "pIC50",
    "measured-result": 5.29
  },
  {
    "compound": "O=C(Nc1ccc(O)c(Cl)c1)Nc1nc2ccc(S(=O)(=O)C(F)(F)F)cc2s1 [Compound 67]",
    "tgt": "17β-HSD10 (Homo sapiens, UniProt Q99714)",
    "observable": "pIC50",
    "measured-result": 5.57
  },
  {
    "compound": "CS(=O)(=O)c1ccc2nc(NC(=O)Nc3ccc(O)c(Cl)c3)sc2c1 [Compound 66]",
    "tgt": "17β-HSD10 (Homo sapiens, UniProt Q99714)",
    "observable": "pIC50",
    "measured-result": 6.03
  },
  {
    "compound": "O=C(Nc1ccc(O)c(Cl)c1)Nc1ccc(O)c(Cl)c1 [Compound 78, 1,3-Bis(3-chloro-4-hydroxyphenyl)urea]",
    "tgt": "17β-HSD10 (Homo sapiens, UniProt Q99714)",
    "observable": "pIC50",
    "measured-result": 5.17
  },
  {
    "compound": "CCOc1ccc2nc(NC(=O)Nc3ccc(O)c(Cl)c3)sc2c1 [Compound 63]",
    "tgt": "17β-HSD10 (Homo sapiens, UniProt Q99714)",
    "observable": "pIC50",
    "measured-result": 5.79
  },
  {
    "compound": "O=C(Nc1ccc(O)c(Cl)c1)Nc1nc2ccc(SC(F)(F)F)cc2s1 [Compound 64]",
    "tgt": "17β-HSD10 (Homo sapiens, UniProt Q99714)",
    "observable": "pIC50",
    "measured-result": 5.28
  },
  {
    "compound": "CC(C)(C)c1ccc2nc(NC(=O)Nc3ccc(O)c(Cl)c3)sc2c1 [Compound 62]",
    "tgt": "17β-HSD10 (Homo sapiens, UniProt Q99714)",
    "observable": "pIC50",
    "measured-result": 5.28
  },
  {
    "compound": "COc1ccc2nc(NC(=O)Nc3ccc(O)c(Br)c3)sc2c1 [Compound 5]",
    "tgt": "17β-HSD10 (Homo sapiens, UniProt Q99714)",
    "observable": "pIC50",
    "measured-result": 5.89
  }
]
